All figures here come from ChEMBL document CHEMBL1201862.

system: TK-10; assay: NCI tumour cell line growth inhibition, 48 h
Calls of active or inactive are those of the source. Rule as the data show it: active = GI50 up to about 1.1 µM and inactive = higher.
Property label: GI50

>>> assay_result("CNC(=O)NS(=O)(=O)c1ccc(C)cc1.NS(=O)O")
"> 100 µM (inactive)"
>>> assay_result("O=C1NN=CN2C(=O)CCC12 (stereo not given)")
"> 100 µM (inactive)"
>>> assay_result("CCOC1CN(C)/C(=N\\c2cccc3ccccc23)S1 (stereo not given)")
"> 10 µM (inactive)"
>>> assay_result("COc1ccc(C2C3=CONC3CC3CCCCC32)cc1 (stereo not given)")
"> 100 µM (inactive)"
>>> assay_result("O=S1(=O)OCCOS(=O)(=O)C1Cc1cccc2ccccc12")
"30.7 µM (inactive)"

---

test system: PC-3; experiment: NCI tumour cell line growth inhibition, 48 h
Activity calls are given as the source filed them. No stated cut-off is given here; in the data, active = GI50 up to about 1.1 µM and inactive = higher.
Labels: active, inactive

>>> class_name("COC(=O)c1ccc(NCc2cc(O)c3ccccc3c2O)cc1")
"inactive"
>>> class_name("CN[C@@H]1C[C@H]2O[C@@](C)([C@@H]1OC)n1c3ccccc3c3c4c(c5c6ccccc6n2c5c31)C(=O)N[C@@H]4O")
"active"
>>> class_name("COc1cc(C2S/C(=C/c3ccccc3)C(=O)N2c2cc(Cl)c(Cl)cc2Cl)cc(OC)c1OC (configuration not stated)")
"inactive"
>>> class_name("CCN(CC)CCC1CCCCN1CC(=O)N1c2ccccc2NC(=O)CC1C (configuration not stated)")
"inactive"
>>> class_name("CN1C(c2ccccc2)=CC(=O)C(O)=C(c2ccccc2)S1(=O)=O")
"inactive"
>>> class_name("CNC(=O)NS(=O)(=O)c1ccc(C)cc1.NS(=O)O")
"inactive"
>>> class_name("COC(=O)/C=C(\\S/C(=N\\n1cc(C(=O)OC)c(C(=O)OC)c1-c1ccc(C)cc1)c1ccc(C)cc1)C(=O)OC")
"inactive"

---

system: OVCAR-8; test: NCI tumour cell line growth inhibition, 48 h
The source made the active and inactive calls. Rule as the data show it: active = GI50 up to about 1.1 µM and inactive = higher.
The reader will find reported GI50 values listed item by item below.
Property label: GI50

>>> assay_result("c1cnc2c3[nH]cc4[nH]c5ccccc5c4c-3nc2c1")
"45.1 µM (inactive)"
>>> assay_result("CC(C)c1cccc(C(C)C)c1NC(=O)/C(CC(=O)CC(c1ccccc1)c1c(O)c2ccccc2oc1=O)=N/O (stereo not given)")
"> 100 µM (inactive)"
>>> assay_result("Cc1c2c(n(C)c1C)C(=O)C1C(C2=O)C2(C)c3ccccc3C1(C)c1ccccc12 (stereo not given)")
"> 100 µM (inactive)"
>>> assay_result("O=C1OC(CN2CCOCC2)CN1/N=C/c1ccc([N+](=O)[O-])o1 (stereo not given) [FURALTADONE]")
"45.8 µM (inactive)"
>>> assay_result("NC1=C(Cl)C(=O)c2c(O)ccc(O)c2C1=O")
"3.82 µM (inactive)"

---

Recorded GI50, one value per entry.
tested on: A549; assay: NCI tumour cell line growth inhibition, 48 h
Active and inactive are the calls of the source. No stated cut-off is given here; in the data, active = GI50 up to about 1.1 µM and inactive = higher.
Property label: GI50

>>> assay_result("Cc1cc(NS(=O)(=O)c2ccc(NC(=O)c3cccc4c(=O)c5ccccc5[nH]c34)cc2)no1")
"> 100 µM (inactive)"
>>> assay_result("c1cc2c3ccsc3c3sccc3c2s1")
"> 100 µM (inactive)"
>>> assay_result("CC(=O)NC1C(OCc2ccccc2)OC(CO)C(O)C1OC(C)C(=O)NC(C)C(=O)NC(CCC(=O)NCCCCNc1c2ccccc2nc2cccc([N+](=O)[O-])c12)C(N)=O (stereo unspecified)")
"0.0404 µM (active)"
>>> assay_result("O=C1CCCCCC1CC(Sc1ccccc1)Sc1ccccc1 (stereo unspecified)")
"39.8 µM (inactive)"
>>> assay_result("COc1ccc(-c2cn3ccsc3n2)cc1")
"> 100 µM (inactive)"
>>> assay_result("O=C1c2ccccc2C(=O)N1C/C=N/NS(=O)(=O)c1ccc(Br)cc1")
"> 100 µM (inactive)"
